- SUBJECT_OF_TEST: Bcl-xL, Q07817
- Sequence (Q07817 1-209): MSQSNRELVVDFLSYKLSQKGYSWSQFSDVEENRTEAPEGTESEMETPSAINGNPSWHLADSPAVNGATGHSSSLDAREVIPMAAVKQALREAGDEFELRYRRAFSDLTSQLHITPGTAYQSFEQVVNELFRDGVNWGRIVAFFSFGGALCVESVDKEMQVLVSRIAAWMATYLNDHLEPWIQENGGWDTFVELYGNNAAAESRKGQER
- ASSAY_NAME: peptide SPOT array, c-Myc-tagged receptor at 1 uM or 100 nM, anti-c-Myc-Cy3
Give condition met when the value for SPOT signal as a fraction of Bim BH3's signal on the same receptor and array is at least 1. Give condition not met when it is less.

NKELSELIEQLQKNADQVEKNIVDTE [PPL]	condition not met
QAGPVSSGLALRKLGDRVQLLNLLVT [CCDC57]	condition met

Task: Item HGTSSRIGSSMKSVLEVMAIGRTFEE [CPS1] with SPOT signal as a fraction of Bim BH3's signal on the same receptor and array of 1 or above?
Output: condition not met

Task: Item ADAIRPRCVELRHLCDDFINGNKKKW [MCF2L2] with SPOT signal as a fraction of Bim BH3's signal on the same receptor and array of 1 or above?
Output: condition met

Task: Item IGFFIAFGIAMGKMLDQAKLMVDFFN [SLC1A2] with SPOT signal as a fraction of Bim BH3's signal on the same receptor and array of 1 or above?
Output: condition not met

Task: Item GGRVKLVHSALIQLLDSLSHKGNEFW [WDR60] with SPOT signal as a fraction of Bim BH3's signal on the same receptor and array of 1 or above?
Output: condition not met

Task: Item KLALEQRCRELRARLRRLEETLPRRI [KIF19] with SPOT signal as a fraction of Bim BH3's signal on the same receptor and array of 1 or above?
Output: condition met

Each recorded value in this set is attributed to paper PMC4072508.
